# measured.on: Prothrombin (Homo sapiens, UniProt P00734)
measurement.type: IC50 (µM)

{"columns": ["compound.structure.string", "result.comparator", "result"],
 "data": [
  ["Cc1cccc(OC(=O)c2cc3cc(CCl)ccc3oc2=O)n1", "=", 1.39],
  ["N=C(N)Nc1cccc(OC(=O)c2cc3cc(CCl)ccc3oc2=O)c1", ">", 300],
  ["NCCCOC(=O)c1cc2cc(CCl)ccc2oc1=O", ">", 300],
  ["NCCOC(=O)c1cc2cc(CCl)ccc2oc1=O", "=", 284],
  ["Nc1cccc(OC(=O)c2cc3cc(CCl)ccc3oc2=O)c1", "=", 1.98],
  ["Nc1ccc(OC(=O)c2cc3cc(CCl)ccc3oc2=O)cc1", "=", 48]
]}

Data origin, for the record: ChEMBL document CHEMBL1146107
